The reported numbers originate from patent US9493426B2.

- TARGET UNDER TEST: Ba/F3-FGFR1-transfected cells (Homo sapiens)
- Construct: other: minus IL3; 24 hours, Alamar Blue
- Sequence (P11362 whole entry, change not shown): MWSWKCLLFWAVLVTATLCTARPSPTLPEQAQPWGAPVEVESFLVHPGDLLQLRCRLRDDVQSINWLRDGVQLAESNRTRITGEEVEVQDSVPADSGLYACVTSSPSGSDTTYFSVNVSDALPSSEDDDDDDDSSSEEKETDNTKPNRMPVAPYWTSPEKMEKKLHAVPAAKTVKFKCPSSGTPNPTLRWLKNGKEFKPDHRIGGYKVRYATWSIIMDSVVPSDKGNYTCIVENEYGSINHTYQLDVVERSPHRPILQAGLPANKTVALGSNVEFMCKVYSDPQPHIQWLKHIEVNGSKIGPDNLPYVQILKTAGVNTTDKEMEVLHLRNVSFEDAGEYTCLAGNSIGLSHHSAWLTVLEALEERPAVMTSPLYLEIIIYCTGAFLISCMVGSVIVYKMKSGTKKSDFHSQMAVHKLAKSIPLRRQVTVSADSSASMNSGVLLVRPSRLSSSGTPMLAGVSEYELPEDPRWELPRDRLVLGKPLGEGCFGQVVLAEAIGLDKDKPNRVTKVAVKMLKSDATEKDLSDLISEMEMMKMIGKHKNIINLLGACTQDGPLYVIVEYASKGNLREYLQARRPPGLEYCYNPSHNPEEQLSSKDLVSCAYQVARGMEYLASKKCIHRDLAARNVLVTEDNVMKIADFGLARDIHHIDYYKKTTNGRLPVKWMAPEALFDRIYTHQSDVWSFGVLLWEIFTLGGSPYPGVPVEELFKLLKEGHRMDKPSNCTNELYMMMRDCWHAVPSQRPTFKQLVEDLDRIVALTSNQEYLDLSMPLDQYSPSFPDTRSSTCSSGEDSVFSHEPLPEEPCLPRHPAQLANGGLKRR
- TEST DESCRIPTION: Ba/F3-FGFR1 (minus IL3 or plus IL3) cellular proliferation assay
- Format: cell-based
- COND: 24 hours, Alamar Blue

>  <COMPOUND>
COc1cc(OC)c(F)c(N(CCO)c2ccc3ncn(-c4cnn(C)c4)c(=O)c3c2)c1F [Compound 18]

>  <REPORTED RELATION>
=

>  <BAF3-FGFR1 (MIN IL3 pIC50)>
7.2

$$$$
>  <COMPOUND>
COc1cc(OC)c(Cl)c(N(CCO)c2ccc3ncn(-c4cnn(C)c4)c(=O)c3c2)c1Cl [Compound 10]

>  <REPORTED RELATION>
=

>  <BAF3-FGFR1 (MIN IL3 pIC50)>
6.2

$$$$
>  <COMPOUND>
COc1cc(OC)cc(C(=O)c2ccc3ncn(-c4cnn(C)c4)c(=O)c3c2)c1 [Compound 24]

>  <REPORTED RELATION>
<

>  <BAF3-FGFR1 (MIN IL3 pIC50)>
5

$$$$
>  <COMPOUND>
COc1cc(OC)cc(N(CCO)c2ccc3ncn(-c4cnn(C)c4)c(=O)c3c2)c1 [Compound 8]

>  <REPORTED RELATION>
=

>  <BAF3-FGFR1 (MIN IL3 pIC50)>
5.4

$$$$
>  <COMPOUND>
COc1cc(OC)c(F)c(N(Cc2ncc[nH]2)c2ccc3ncn(-c4cnn(C)c4)c(=O)c3c2)c1F [Compound 22]

>  <REPORTED RELATION>
=

>  <BAF3-FGFR1 (MIN IL3 pIC50)>
6.8

$$$$
>  <COMPOUND>
COc1cc(OC)c(F)c(N(CCO)c2ccc3ncn(-c4cnn(C)c4)c(=O)c3c2)c1 [Compound 16]

>  <REPORTED RELATION>
=

>  <BAF3-FGFR1 (MIN IL3 pIC50)>
6.3

$$$$
>  <COMPOUND>
COc1cc(OC)cc(N(CCNC(C)C)c2ccc3ncn(-c4cnn(C)c4)c(=O)c3c2)c1 [Compound 9]

>  <REPORTED RELATION>
=

>  <BAF3-FGFR1 (MIN IL3 pIC50)>
7.2

$$$$
>  <COMPOUND>
COc1cc(OC)c(F)c(N(CCNC(C)C)c2ccc3ncn(-c4cnn(C)c4)c(=O)c3c2)c1 [Compound 17]

>  <REPORTED RELATION>
=

>  <BAF3-FGFR1 (MIN IL3 pIC50)>
7.6

$$$$
>  <COMPOUND>
COc1cc(OC)c(F)c(N(CCNC(C)C)c2ccc3ncn(-c4ccccc4)c(=O)c3c2)c1F [Compound 2]

>  <REPORTED RELATION>
=

>  <BAF3-FGFR1 (MIN IL3 pIC50)>
7.7

$$$$
>  <COMPOUND>
COc1cc(OC)c(F)c(N(CCNC(C)C)c2ccc3ncn(-c4cnn(C)c4)c(=O)c3c2)c1F [Compound 19]

>  <REPORTED RELATION>
=

>  <BAF3-FGFR1 (MIN IL3 pIC50)>
8.8

$$$$
>  <COMPOUND>
COc1cc(OC)c(F)c(N(CCO)c2ccc3ncn(-c4ccccc4)c(=O)c3c2)c1F [Compound 1]

>  <REPORTED RELATION>
=

>  <BAF3-FGFR1 (MIN IL3 pIC50)>
6.0

$$$$
>  <COMPOUND>
COc1cc(OC)c(F)c(N(Cc2ncc[nH]2)c2ccc3ncn(-c4ccccc4)c(=O)c3c2)c1F [Compound 4]

>  <REPORTED RELATION>
=

>  <BAF3-FGFR1 (MIN IL3 pIC50)>
6.1

$$$$
>  <COMPOUND>
COc1cc(OC)c(F)c(N(Cc2ncc[nH]2)c2ccc3ncn(-c4cnn(C)c4)c(=O)c3c2)c1 [Compound 15]

>  <REPORTED RELATION>
=

>  <BAF3-FGFR1 (MIN IL3 pIC50)>
6.7

$$$$
>  <COMPOUND>
COc1cc(OC)c(F)c(N(CCO)c2ccc3ncn(-c4ccccc4)c(=O)c3c2)c1 [Compound 6]

>  <REPORTED RELATION>
=

>  <BAF3-FGFR1 (MIN IL3 pIC50)>
5.5

$$$$
>  <COMPOUND>
COc1cc(OC)c(Cl)c(N(CCO)c2ccc3ncn(-c4ccccc4)c(=O)c3c2)c1Cl [Compound 5]

>  <REPORTED RELATION>
=

>  <BAF3-FGFR1 (MIN IL3 pIC50)>
5.5

$$$$
>  <COMPOUND>
COc1cc(OC)cc(N(CCO)c2ccc3ncn(-c4ccccc4)c(=O)c3c2)c1 [Compound 7]

>  <REPORTED RELATION>
<

>  <BAF3-FGFR1 (MIN IL3 pIC50)>
5

$$$$
>  <COMPOUND>
COc1cc(OC)c(Cl)c(N(Cc2ncc[nH]2)c2ccc3ncn(-c4cnn(C)c4)c(=O)c3c2)c1Cl [Compound 13]

>  <REPORTED RELATION>
=

>  <BAF3-FGFR1 (MIN IL3 pIC50)>
5.5

$$$$
>  <COMPOUND>
COc1cc(OC)c(Cl)c(N(CCNC(C)C)c2ccc3ncn(-c4cnn(C)c4)c(=O)c3c2)c1Cl [Compound 11]

>  <REPORTED RELATION>
=

>  <BAF3-FGFR1 (MIN IL3 pIC50)>
7.4

$$$$
>  <COMPOUND>
CNCCN(c1ccc2ncn(-c3cnn(C)c3)c(=O)c2c1)c1c(F)c(OC)cc(OC)c1F [Compound 20]

>  <REPORTED RELATION>
=

>  <BAF3-FGFR1 (MIN IL3 pIC50)>
7.6

$$$$
>  <COMPOUND>
COc1cccc(C(=O)c2ccc3ncn(-c4cnn(C)c4)c(=O)c3c2)c1 [Compound 23]

>  <REPORTED RELATION>
<

>  <BAF3-FGFR1 (MIN IL3 pIC50)>
5

$$$$
